Data provenance: PubChem BioAssay

Target entity: Voltage-gated potassium channel subunit beta-2 (Rattus norvegicus) (UniProt P62483)
Sequence (P62483 whole entry, looked up): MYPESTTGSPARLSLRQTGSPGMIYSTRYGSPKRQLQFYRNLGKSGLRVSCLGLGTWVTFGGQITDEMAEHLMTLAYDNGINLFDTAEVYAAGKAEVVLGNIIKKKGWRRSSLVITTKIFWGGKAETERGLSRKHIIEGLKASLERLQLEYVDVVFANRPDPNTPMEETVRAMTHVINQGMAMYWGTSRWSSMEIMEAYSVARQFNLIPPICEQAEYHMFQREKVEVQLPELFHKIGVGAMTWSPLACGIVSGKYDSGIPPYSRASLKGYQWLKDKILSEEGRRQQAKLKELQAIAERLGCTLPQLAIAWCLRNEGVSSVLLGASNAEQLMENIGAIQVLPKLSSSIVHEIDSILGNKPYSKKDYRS
Test method notes: KvBeta enzyme negative modulators, primary screen, biochemical, NADPH fluorescence (AID 622);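 further: slope of raw intensity against log time taken from 70 to 1610 s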
Experimental conditions: recombinant KvBeta, 4-cyanobenzaldehyde reduction, at 10 µM, active compounds read high
Label rule, in plain words: fluorescence slope of -0.5 and up is yes, under -0.5 is no.

Examples from the recorded data:
CCOc1ccc2c(c1)n([O-])c1c([n+]2=O)CCCC1
yes
c1ccc(-c2ccc(-c3ccccn3)nn2)nc1
yes
O=C(CSc1nnc(Cc2cc(=O)[nH]c(=O)[nH]2)n1-c1ccccc1)NCC1CCCO1 (stereo not given)
yes
c1ccc2c(c1)c1c3n2CCNC3CCC1 (stereo not given)
yes
Cc1ccc(S(=O)(=O)c2cc3c(=O)n4cccc(C)c4nc3n(CC3CCCO3)c2=N)cc1 (stereo not given)
yes
Cc1cccc(NC(=O)CS(=O)(=O)c2cn(C)c3ccccc23)c1
no

INPUT: Quick check, fluorescence slope >= -0.5? CCOC(=O)N1CCN(C2OC(=O)c3ccccc32)CC1 (stereo not given)
OUTPUT: yes

INPUT: Quick check, fluorescence slope >= -0.5? CCC1Oc2ccc(C)cc2N(CC(=O)NCCCN2CCCCC2CC)C1=O (stereo not given)
OUTPUT: yes

INPUT: Quick check, fluorescence slope >= -0.5? Brc1ccc(-c2cnnc(N3CCCC3)n2)cc1
OUTPUT: yes

INPUT: Quick check, fluorescence slope >= -0.5? COC(=O)Nc1sc2c(c1C(=O)N1CCOCC1)CCC(C)C2 (stereo not given)
OUTPUT: yes

INPUT: Quick check, fluorescence slope >= -0.5? N#Cc1nc(COc2ccc(Br)cc2)oc1NCCN1CCOCC1
OUTPUT: yes

INPUT: Quick check, fluorescence slope >= -0.5? Cc1nc2c(o1)CCc1ccccc1C2N1CCN(C)CC1 (stereo not given)
OUTPUT: yes

INPUT: Quick check, fluorescence slope >= -0.5? COc1ccc(C2C(C(=O)c3sc(C)nc3C)=C(O)C(=O)N2CCN(C)C)cc1OC (stereo not given)
OUTPUT: no

INPUT: Quick check, fluorescence slope >= -0.5? Fc1ccc(-n2c(Cc3ccccc3)nnc2SCc2nc(-c3cccs3)no2)cc1
OUTPUT: no

INPUT: Quick check, fluorescence slope >= -0.5? Cc1cc(C)n(-c2nc3c(c(=O)[nH]c(=O)n3C)n2Cc2ccc(F)cc2)n1
OUTPUT: yes

INPUT: Quick check, fluorescence slope >= -0.5? CN(C)c1oc(-c2ccccc2F)nc1C#N
OUTPUT: yes

INPUT: Quick check, fluorescence slope >= -0.5? COC(=O)c1cn(C(=O)c2ccc(Br)o2)c2ccccc12
OUTPUT: yes

INPUT: Quick check, fluorescence slope >= -0.5? COC(=O)c1ccccc1NC(=O)C1CC=CCC1C(=O)O (stereo not given)
OUTPUT: yes

INPUT: Quick check, fluorescence slope >= -0.5? Cc1cccc(NC(=O)c2cc(N3CCOCC3)nc3ccccc23)c1
OUTPUT: yes

INPUT: Quick check, fluorescence slope >= -0.5? O=C1C2CC=CCC2C(=O)N1c1ccc(Cc2ccncc2)cc1 (stereo not given)
OUTPUT: yes

INPUT: Quick check, fluorescence slope >= -0.5? CC1NC2(C(=O)N(Cc3ccccc3)c3ccccc32)C2C(=O)N(c3ccccc3)C(=O)C12 (stereo not given)
OUTPUT: no
